Reference source for all entries: the supplement of paper PMC10567573

Provide the recorded protein stability index for the entries that follow.
B1: ESR2 (parent)
chain: KSCQACRLRKCYEVGMVKCGSRRE

- Variants of: B1
- assay-procedure: protein stability index of a GFP-peptide fusion (GPS, HEK-293T) (PSI 1-6); higher = more stable;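 further: lentivirally expressed fusions sorted by FACS into six bins by GFP to DsRed ratio, PSI derived from sequencing read proportions per bin multiplied by bin number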
- details: c terminus: a fixed tail appended
Output spec: single numeric token, no unit.

Which protein stability index is listed for `C3H` ? 2.65

Would you mind telling me what protein stability index value was observed for `S21L` ? 2.44

# input variant: `K18V` ; wanted: its protein stability index 2.79

Recorded protein stability index for `R9P` , please? 2.35

Please look up its protein stability index: `S2W` 1.91

Look up protein stability index: `Q4T` 2.17

Give its protein stability index value. Item: `E24D` 2.28

Requested field: protein stability index. Item: `M16R` 2.4

Quick one: protein stability index of `Q4K` ? 1.84

// lookup protein stability index for `E24V` 2.19

Given `V14I` , state its recorded protein stability index. 1.67

Dear colleague, I am looking for the recorded protein stability index of the following variant: `C19V` 1.89

Fill blank: measured protein stability index of the variant `K10G` is ____. 1.78

Report protein stability index for `K18R` please. 2.31

Entry under review: `L8G` . Reported protein stability index? 2.36

Need protein stability index of `R22F` , thanks. 1.41

May I ask what protein stability index has been recorded for `R22M` ? 2.21

I would be grateful if you could share the reported protein stability index for `C11W` . 2

What value of measured protein stability index is listed for `A5F` ? 1.55

Recorded protein stability index for `C19M` , please? 1.9

Recorded protein stability index for `G20E` , please? 2.41

Which measured protein stability index value corresponds to `C19T` ? 2.81
